- System: Mus musculus
- Procedure Summary: Analgesic activity in tail flick test, subcutaneous administration
- Type: functional
- Details: Mus musculus, Tail, sc; read-out: ED50
Observation Type: ED50 (mg/kg)
Entry rule: numbers only, all in mg/kg.

Per the records, this compound ( `CN1CC[C@]23c4c5ccc(O)c4O[C@H]2[C@@H](O)C=C[C@H]3[C@H]1C5` ) has ED50 equal to 3.4

New cases:
Per the records, this compound ( `CN(C(=O)C(C)(C)C1(O)CCN(CCc2ccccc2Cl)CC1)C1CCCCC1` ) has ED50 equal to 21

====

- System: Mus musculus
- Procedure Summary: Analgesic activity in tail flick test, subcutaneous administration
- Assay type: functional
- Details: Mus musculus, Tail, sc; read-out: ED50
Parameter ED50: see the listing below.

Past entries and their recorded results:
Item: `CN(C(=O)C1(C2(O)CCN(CCc3ccccc3Cl)CC2)CCCC1)C1CCCCC1.O=C(O)/C=C/C(=O)O` | System: Mus musculus | ED50: > 56 mg/kg

Item: C=CCN(C(=O)C(C)C1(O)CCN(CCc2ccccc2Cl)CC1)c1ccccc1OC.O=C(O)/C=C\C(=O)O (centres undefined) | System: Mus musculus | ED50: 0.09 mg/kg

Item: Cc1ccc(CCN2CCC(O)(C(C)C(=O)N(C)C3CCCCC3)CC2)cc1.Cl (centres undefined) | System: Mus musculus | ED50: > 3.2 mg/kg

Lab note: next compound to report on.
Item: CCOc1ccccc1N(C)C(=O)C(C)C1(O)CCN(CCc2ccccc2Cl)CC1.O=C(O)/C=C/C(=O)O (centres undefined) | System: Mus musculus | ED50: 0.51 mg/kg

====

- Target Or Test System: Opioid receptor (Rattus norvegicus, UniProt P33533+P34975+P33535)
- Procedure Summary: Inhibition of [3H]-Naloxone binding to rat brain membrane without NaCl
IC50 under 1 nM gets rule met, anything at or over 1 nM gets rule not met.

Illustrative cases are given below, each with its answer.
Prompt line: Hello, I'm reviewing records and need to know if IC50 of COc1ccccc1N(C)C(=O)C(C)C1(O)CCN(CCc2ccccc2Cl)CC1.O=C(O)/C=C\C(=O)O (stereo unspecified) is below 1 nM. Could you check?
Response line: rule not met

Prompt line: Hello, I'm reviewing records and need to know if IC50 of C=CCN(C(=O)C(C)C1(O)CCN(CCc2ccccc2Cl)CC1)C1CCCCC1.O=C(O)/C=C\C(=O)O (stereo unspecified) is below 1 nM. Could you check?
Response line: rule not met

Prompt line: Hello, I'm reviewing records and need to know if IC50 of C=CCN(C(=O)C(C)C1(O)CCN(CCc2ccccc2Cl)CC1)c1ccccc1OC.O=C(O)/C=C\C(=O)O (stereo unspecified) is below 1 nM. Could you check?
Response line: rule met

Prompt line: Hello, I'm reviewing records and need to know if IC50 of C#CCN(C(=O)C(C)C1(O)CCN(CCc2ccccc2Cl)CC1)c1ccccc1OC.O=C(O)/C=C\C(=O)O (stereo unspecified) is below 1 nM. Could you check?
Response line: rule met

New cases:
Prompt line: Hello, I'm reviewing records and need to know if IC50 of CCOc1ccccc1N(CC)C(=O)C(C)C1(O)CCN(CCc2ccccc2Cl)CC1 (stereo unspecified) is below 1 nM. Could you check?
Response line: rule met

Prompt line: Hello, I'm reviewing records and need to know if IC50 of CCN(C(=O)C(C)C1(O)CCN(CCc2ccccc2Cl)CC1)c1ccccc1OC.O=C(O)/C=C/C(=O)O (stereo unspecified) is below 1 nM. Could you check?
Response line: rule met

Prompt line: Hello, I'm reviewing records and need to know if IC50 of CC(C(=O)N(C)C1CCCCC1)C1(O)CCN(CCc2ccccc2Cl)CC1.O=C(O)/C=C\C(=O)O (stereo in doubt; 15) is below 1 nM. Could you check?
Response line: rule not met

Prompt line: Hello, I'm reviewing records and need to know if IC50 of CN(C(=O)C(C)(C)C1(O)CCN(CCc2ccccc2Cl)CC1)C1CCCCC1 [PIPRADIMADOL] is below 1 nM. Could you check?
Response line: rule not met

Prompt line: Hello, I'm reviewing records and need to know if IC50 of CCCN(C(=O)C(C)C1(O)CCN(CCc2ccccc2Cl)CC1)c1ccccc1OC.O=C(O)/C=C/C(=O)O (stereo unspecified) is below 1 nM. Could you check?
Response line: rule met

Prompt line: Hello, I'm reviewing records and need to know if IC50 of `CCN(C(=O)C(C)(C)C1(O)CCN(CCc2ccccc2Cl)CC1)c1ccccc1OC.O=C(O)/C=C/C(=O)O` is below 1 nM. Could you check?
Response line: rule not met

====

- Tested on: Mus musculus
- Procedure Summary: Analgesic activity in tail flick test, oral administration
- Type: functional
- Details: Mus musculus, Tail, po; read-out: ED50
Observation Type: ED50 (mg/kg)
Entry rule: numbers only, all in mg/kg.

Per the records, this molecule ( `CN(C(=O)C1(C2(O)CCN(CCc3ccccc3Cl)CC2)CCCC1)C1CCCCC1.O=C(O)/C=C/C(=O)O` ) has ED50 equal to 100

Per the records, this molecule ( CCCN(C(=O)C(C)C1(OC(=O)CC)CCN(CCc2ccccc2Cl)CC1)c1ccccc1OC.O=C(O)/C=C\C(=O)O (centres undefined) ) has ED50 equal to 100

Per the records, this molecule ( CCCN(C(=O)C(C)C1(O)CCN(CCc2ccccc2Cl)CC1)C1CCCCC1 (centres undefined) ) has ED50 equal to 56

New cases:
Per the records, this molecule ( CC(C(=O)N(C)C1CCCCC1)C1CCN(CCc2ccccc2Cl)CC1.Cl (centres undefined) ) has ED50 equal to 37

====

- Test system: Mus musculus
- Procedure Summary: Analgesic activity in tail flick test, oral administration
- Assay type: functional
- Details: Mus musculus, Tail, po; read-out: ED50
Observation Type: ED50 (mg/kg)
Entry rule: numbers only, all in mg/kg.

Past entries and their recorded results:
Per the records, this compound ( C=CCN(C(=O)C(C)C1(O)CCN(CCc2ccccc2Cl)CC1)c1ccccc1OC.O=C(O)/C=C\C(=O)O (centres undefined) ) has ED50 equal to 7.6

Per the records, this compound ( `CN1CC[C@]23c4c5ccc(O)c4O[C@H]2[C@@H](O)C=C[C@H]3[C@H]1C5` ) has ED50 equal to 23

Per the records, this compound ( Cc1ccc(CCN2CCC(O)(C(C)C(=O)N(C)C3CCCCC3)CC2)cc1.Cl (centres undefined) ) has ED50 equal to 100

Per the records, this compound ( CCN(C(=O)C(C)C1(O)CCN(CCc2ccccc2Cl)CC1)c1ccccc1OC.O=C(O)/C=C/C(=O)O (centres undefined) ) has ED50 equal to 4.9

Per the records, this compound ( C#CCN(C(=O)C(C)C1(O)CCN(CCc2ccccc2Cl)CC1)c1ccccc1OC.O=C(O)/C=C\C(=O)O (centres undefined) ) has ED50 equal to 5.4

Per the records, this compound ( CCOc1ccccc1N(CC)C(=O)C(C)C1(O)CCN(CCc2ccccc2Cl)CC1 (centres undefined) ) has ED50 equal to 10

Per the records, this compound ( CC(C(=O)N(C)C1CCCCC1)C1(O)CCN(CCc2ccccc2Cl)CC1 (centres undefined) ) has ED50 equal to 100

Lab note: next compound to report on.
Per the records, this compound ( CCCN(C(=O)C(C)C1(O)CCN(CCc2ccccc2Cl)CC1)c1ccccc1OC.O=C(O)/C=C/C(=O)O (centres undefined) ) has ED50 equal to 5.4

====

- Test system: Mus musculus
- Procedure Summary: Analgesic activity in tail flick test, subcutaneous administration
- Assay type: functional
- Details: Mus musculus, Tail, sc; read-out: ED50
Observation Type: ED50 (mg/kg)
Entry rule: numbers only, all in mg/kg.

Item: Br.COc1cccc(CCN2CCC(O)(C(C)C(=O)N(C)C3CCCCC3)CC2)c1 (centres undefined) | System: Mus musculus | ED50: 18

Item: `CN(C(=O)C1(C2(O)CCN(CCc3ccccc3Cl)CC2)CC1)C1CCCCC1.O=C(O)/C=C\C(=O)O` | System: Mus musculus | ED50: 10

New cases:
Item: C#CCN(C(=O)C(C)C1(O)CCN(CCc2ccccc2Cl)CC1)c1ccccc1OC.O=C(O)/C=C\C(=O)O (centres undefined) | System: Mus musculus | ED50: 0.13

Item: CC(C(=O)N(C)C1CCCCC1)C1(O)CCN(CCc2ccccc2)CC1.Cl (centres undefined) | System: Mus musculus | ED50: 18

====

- Test system: Mus musculus
- Procedure Summary: Analgesic activity in tail flick test, subcutaneous administration
- Format: functional
- Details: Mus musculus, Tail, sc; read-out: ED50
Observation Type: ED50 (mg/kg)
Entry rule: numbers only, all in mg/kg.

Per the records, this compound ( CCCN(C(=O)C(C)C1(OC(=O)CC)CCN(CCc2ccccc2Cl)CC1)c1ccccc1OC.O=C(O)/C=C\C(=O)O (centres undefined) ) has ED50 equal to 32

Per the records, this compound ( C=CCN1CCC(O)(C(C)C(=O)N(C)C2CCCCC2)CC1.O=C(O)/C=C/C(=O)O (centres undefined) ) has ED50 equal to 32

Per the records, this compound ( CC(C(=O)N(C)C1CCCCC1)C1(O)CCN(CCc2ccccc2Cl)CC1 (centres undefined) ) has ED50 equal to 3.8

Per the records, this compound ( CCOc1ccccc1N(CC)C(=O)C(C)C1(O)CCN(CCc2ccccc2Cl)CC1 (centres undefined) ) has ED50 equal to 0.26
